# assay.method.text: In vitro cytotoxicity by MTT assay, HEK 293
# Type: cell-based, human
# run.conditions: human, HEK 293 cells, 1.23 μM, read-out: % cytotoxicity (100 − % cell survival) of HEK 293 cell line
measurement.name: cytotoxicity at 72 h, 1.23 µM (%)
One number for each entry, in %.

1. Nc1nnc(S(=O)(=O)NC(=O)c2ccccc2)s1 ... 28.5

Please give cytotoxicity at 72 h, 1.23 µM for each item listed below.
1. CC(=O)Nc1ccc(S(=O)(=O)Nc2nnc(S(=O)(=O)NC(=O)c3ccccc3)s2)cc1
2. CC(=O)Nc1ccc(S(=O)(=O)Nc2nnc(S(=O)(=O)NC(=O)c3ccccc3O)s2)cc1
3. Nc1nnc(S(=O)(=O)NC(=O)c2cccc([N+](=O)[O-])c2)s1

OUTPUT:
1: 32.2; 2: 37.2; 3: 29.2

====

# Tested on: root meristem cells of Allium cepa
# assay.method.text: In vitro antimitotic activity and cytogenetic analysis, Allium cepa meristem root model
# Assay type: cell-based
# run.conditions: compounds 1 mg/mL, PC (EMS) 2 × 10^−2 M
I'd appreciate it if you could supply Aberrant cells (%) ± SEM values for the items below.
Numbers only, in %.

1) O=C(NS(=O)(=O)c1nnc(N=Cc2ccc(Cl)cc2)s1)c1ccccc1 [Compound 9b] ... 24.64

Please give Aberrant cells (%) ± SEM for each item listed below.
1. CN(C)c1ccc(C=Nc2nnc(S(=O)(=O)NC(=O)c3ccccc3)s2)cc1 [Compound 9h]
2. O=C(NS(=O)(=O)c1nnc(N=Cc2ccccc2O)s1)c1ccccc1 [Compound 9f]
3. O=C(NS(=O)(=O)c1nnc(N=Cc2ccc(O)cc2)s1)c1ccccc1 [Compound 9e]
4. COc1ccc(C=Nc2nnc(S(=O)(=O)NC(=O)c3ccccc3)s2)cc1 [Compound 9d]

OUTPUT:
[29.83, 33.41, 26.74, 25.33]

Please give Aberrant cells (%) ± SEM for each item listed below.
1. CCOS(C)(=O)=O [PC, Ethyl methanesulphonate, reference compound]
2. O=C(NS(=O)(=O)c1nnc(N=Cc2ccccc2)s1)c1ccccc1 [Compound 9a]
3. COc1cc(C=Nc2nnc(S(=O)(=O)NC(=O)c3ccccc3)s2)ccc1O [Compound 9g]
4. COc1ccccc1C=Nc1nnc(S(=O)(=O)NC(=O)c2ccccc2)s1 [Compound 9c]

OUTPUT:
[43.20, 19.28, 40.48, 38.54]

====

# assay.method.text: In vitro cytotoxicity by MTT assay, HEK 293
# Type: cell-based, human
# run.conditions: human, HEK 293 cells, 0.41 μM, read-out: % cytotoxicity (100 − % cell survival) of HEK 293 cell line
measurement.name: cytotoxicity at 72 h, 0.41 µM (%)
Answers are plain numbers, in %.

Example entries begin here.
1) Nc1ccc(C(=O)NS(=O)(=O)c2nnc(NS(=O)(=O)c3ccc(N)cc3)s2)cc1 ... 43.4
2) Nc1nnc(S(=O)(=O)NC(=O)c2ccccc2O)s1 ... 42.1
3) Nc1ccc(S(=O)(=O)Nc2nnc(S(=O)(=O)NC(=O)c3ccc([N+](=O)[O-])cc3)s2)cc1 ... 34.7
4) COc1ccccc1C=Nc1nnc(S(=O)(=O)NC(=O)c2ccccc2)s1 ... 42.9
5) CN(C)c1ccc(C=Nc2nnc(S(=O)(=O)NC(=O)c3ccccc3)s2)cc1 ... 35.1
6) Nc1ccc(S(=O)(=O)Nc2nnc(S(=O)(=O)NC(=O)c3ccccc3O)s2)cc1 ... 24.1
7) CC(=O)Nc1ccc(S(=O)(=O)Nc2nnc(S(=O)(=O)NC(=O)c3ccccc3)s2)cc1 ... 30.1

Let us examine a further case.
// cytotoxicity at 72 h, 0.41 µM value for Nc1nnc(S(=O)(=O)NC(=O)c2ccccc2N)s1 : 57.6
